The compounds listed here are annotated with their Amnesia reversal.
system: Mus musculus; assay: Ability to reverse electroconvulsive shock (ECS) induced amnesia in mice, after administering intraperitoneally, at a dose of 0.63 mg/kg; assay type: functional; conditions: route intraperitoneal
// return numeric value only (unit: %, not printed)

INSERT INTO assay_data (compound, measured_property, recorded_value) VALUES
  ('CN1CCC[C@H]1c1cccnc1 [NICOTINE]', 'Amnesia reversal', 5),
  ('CN(C)CCCN1c2ccccc2Sc2ccc(Cl)cc21 [CHLORPROMAZINE]', 'Amnesia reversal', 20),
  ('C[C@H](N)Cc1ccccc1 [DEXTROAMPHETAMINE]', 'Amnesia reversal', 15),
  ('CC(C)N(CCCNC(=O)CN1CC(c2ccccc2)CC1=O)C(C)C (centres undefined)', 'Amnesia reversal', 9),
  ('O=C(CN1CCCC1=O)NCCN1CCCCC1', 'Amnesia reversal', 18);

[ask] What measured Amnesia reversal goes with CC(C)N(CCCCNC(=O)CN1CCCC1=O)C(C)C ?
[reply] 0

[ask] Need Amnesia reversal of NC(=O)CN1CC(c2ccccc2)CC1=O (centres undefined) , thanks.
[reply] 0

[ask] Endpoint output: Amnesia reversal of C[C@@H]1CCC[C@H](C)N1CCNC(=O)CN1CCCC1=O . Value?
[reply] 10

[ask] What does the record list as Amnesia reversal for C=C(C)[C@@H]1[C@H]2OC(=O)[C@@H]1[C@]1(O)C[C@H]3OC34C(=O)O[C@H]2[C@@]41C.CC(C)(O)[C@@H]1[C@H]2OC(=O)[C@@H]1[C@]1(O)C[C@H]3OC34C(=O)O[C@H]2[C@@]41C (some centres undefined) [PICROTOXIN] ?
[reply] 5

[ask] Entry under review: CC(C)N(CCCNC(=O)CN1CCCC1=O)C(C)C . Reported Amnesia reversal?
[reply] 0

[ask] Reported Amnesia reversal, compound COC(=O)[C@H]1[C@@H](OC(=O)c2ccccc2)C[C@@H]2CC[C@H]1N2C [COCAINE] : ____
[reply] 10

###

tested on: Mus musculus; assay: Ability to reverse electroconvulsive shock (ECS) induced amnesia in mice, after administering intraperitoneally, at a dose of 160 mg/kg; type: functional; conditions: route intraperitoneal
measured_property: Amnesia reversal (%)
The answer is to be given in %; state only the numeric part.

Known results for molecules:
INSERT INTO measurements (molecule, recorded_value) VALUES
  ('CC1CCCC(C)N1CCNC(=O)CN1C(=O)CCC1(C)C (centres undefined)', 80),
  ('O=C(CN1CCCC1=O)NCCCN1CCOCC1', 54),
  ('CC1CCCC(C)N1CCCNC(=O)CN1CCCC1=O (centres undefined)', 60);

[ask] Any idea what Amnesia reversal was measured for CC(C(=O)NCCCN1C(C)CCCC1C)N1CCCC1=O (centres undefined) ?
[reply] 30

###

test system: Mus musculus; assay: Ability to reverse electroconvulsive shock (ECS) induced amnesia in mice, after administering intraperitoneally, at a dose of 10.0 mg/kg; assay type: functional; settings: route intraperitoneal
Each item that follows carries a reported Amnesia reversal.
Write the number in % without appending the unit.

In the examples that follow, each entry is paired with its recorded Amnesia reversal.
INSERT INTO assay_data (compound, measured_property, recorded_value) VALUES
  ('CCC1CCC(=O)N1CC(=O)NCCN(C(C)C)C(C)C (stereo not given)', 'Amnesia reversal', 60),
  ('CC(C)CN(CCNC(=O)CN1CCCC1=O)CC(C)C', 'Amnesia reversal', 25),
  ('COC(=O)C(c1ccccc1)C1CCCCN1 (stereo not given) [METHYLPHENIDATE]', 'Amnesia reversal', 10),
  ('[Cl-].[Li+]', 'Amnesia reversal', 30);

Please turn your attention to the following entry.
[ask] Dear colleague, I am looking for the recorded Amnesia reversal of the following compound: N[C@@H]1C[C@H]1c1ccccc1.N[C@H]1C[C@@H]1c1ccccc1
[reply] 10

###

tested on: Mus musculus; test: Ability to reverse electroconvulsive shock (ECS) induced amnesia in mice, after administering intraperitoneally, at a dose of 0.31 mg/kg; assay type: functional; conditions: route intraperitoneal
Reported Amnesia reversal values for the following compounds.
Note: state the figure and append the unit.

INSERT INTO results (compound, assayed_target, recorded_value) VALUES
  ('C=C(C)[C@@H]1[C@H]2OC(=O)[C@@H]1[C@]1(O)C[C@H]3OC34C(=O)O[C@H]2[C@@]41C.CC(C)(O)[C@@H]1[C@H]2OC(=O)[C@@H]1[C@]1(O)C[C@H]3OC34C(=O)O[C@H]2[C@@]41C (stereo partly specified)', 'Mus musculus', '5%'),
  ('COC(=O)[C@H]1[C@@H](OC(=O)c2ccccc2)C[C@@H]2CC[C@H]1N2C', 'Mus musculus', '15%'),
  ('C[C@H](N)Cc1ccccc1', 'Mus musculus', '10%'),
  ('CN1CCC[C@H]1c1cccnc1', 'Mus musculus', '20%'),
  ('Cn1c(=O)c2c(ncn2C)n(C)c1=O', 'Mus musculus', '10%');

From here, focus on the item given below.
[ask] State its Amnesia reversal on Mus musculus: CN(C)CCCN1c2ccccc2Sc2ccc(Cl)cc21
[reply] 15%

###

system: Mus musculus; experiment: Ability to reverse electroconvulsive shock induced amnesia in mice, after administering intraperitoneally at a dose of 1.25 mg/kg; type: functional; settings: route intraperitoneal
Quick rule: Amnesia reversal of at least 20% means True, below that means False.

Examples from the recorded data:
INSERT INTO measurements (compound, group) VALUES
  ('C[C@H](N)Cc1ccccc1', 'True'),
  ('CC1CCCC(C)N1CCNC(=O)CN1CC(c2ccccc2)CC1=O (stereo unspecified)', 'False'),
  ('CC(C)CN(CCNC(=O)CN1CCCC1=O)CC(C)C', 'True');

[ask] Hello, I need to know if CCC1CCCC(CC)N1CCCNC(=O)CN1CCCC1=O (stereo unspecified) has measured Amnesia reversal not below 20%. Thanks!
[reply] False

[ask] Given CC(C)N(CCCCNC(=O)CN1CCCC1=O)C(C)C , state whether its Amnesia reversal is at least 20%.
[reply] False

###

test system: Mus musculus; test: Ability to reverse electroconvulsive shock (ECS) induced amnesia in mice, after administering intraperitoneally, at a dose of 0.63 mg/kg; format: functional; settings: route intraperitoneal
# Lookup of reported Amnesia reversal keyed by entry
Supply the numeric figure in %, leaving out any unit text.

Answered examples (3):
INSERT INTO assay_data (molecule, measured_property, recorded_value) VALUES
  ('CC1CCC(=O)N1CC(=O)NCCN1C(C)CCCC1C (stereo not drawn)', 'Amnesia reversal', 33),
  ('[Cl-].[Li+]', 'Amnesia reversal', 15),
  ('CC1CCCC(C)N1CCNC(=O)CN1CC(c2ccccc2)CC1=O (stereo not drawn)', 'Amnesia reversal', 0);

[ask] Lab request: please report Amnesia reversal under test system Mus musculus for CCC1CCC(=O)N1CC(=O)NCCN(C(C)C)C(C)C (stereo not drawn)
[reply] 20

[ask] Kindly state the measured Amnesia reversal obtained for CC(C)N(CCNC(=O)CN1CCCC1=O)C(C)C with Mus musculus.
[reply] 0

[ask] Under Mus musculus: Amnesia reversal value of CC1CCCCN1CCCNC(=O)CN1CCCC1=O (stereo not drawn) ?
[reply] 0

[ask] Recall the recorded Amnesia reversal for CCN(CC)CCNC(=O)CN1CC(c2ccccc2)CC1=O (stereo not drawn) with Mus musculus and state it.
[reply] 0

[ask] Entry Cn1c(=O)c2c(ncn2C)n(C)c1=O , system Mus musculus: what Amnesia reversal was measured?
[reply] 5

###

test system: Mus musculus; assay: Ability to reverse electroconvulsive shock (ECS) induced amnesia in mice, after administering intraperitoneally, at a dose of 160 mg/kg; format: functional; details: route intraperitoneal
measured_property: Amnesia reversal
Remember to follow the number with its unit.

INSERT INTO measurements (molecule, recorded_value) VALUES
  ('CCC1(C)CC(=O)NC1=O (stereo not given) [ETHOSUXIMIDE]', '10%'),
  ('CC1CCCC(C)N1CCCCNC(=O)CN1CCCC1=O (stereo not given)', '60%'),
  ('CC(C)(CNC(=O)CN1CCCC1=O)N1CCCCC1', '45%'),
  ('CC1CCCC(C)N1CCCNC(=O)CN1C(=O)CCC1(C)C (stereo not given)', '33%');

Next, consider the following molecule.
[ask] Reported Amnesia reversal, molecule CC1CCC(=O)N1CC(=O)NCCCN(C(C)C)C(C)C (stereo not given) : ____
[reply] 20%

###

test system: Mus musculus; experiment: Ability to reverse electroconvulsive shock induced amnesia in mice, after administering intraperitoneally at a dose of 1.25 mg/kg; format: functional; conditions: route intraperitoneal
measured_property: Amnesia reversal (%)
Record the value in %, omitting the unit from your answer.

Check out these entries, answers already filled in.
INSERT INTO results (compound, measured_property, recorded_value) VALUES
  ('CCC1CCC(=O)N1CC(=O)NCCCN1C(C)CCCC1C (stereo unspecified)', 'Amnesia reversal', 20),
  ('C[C@@H]1CCC[C@H](C)N1CCNC(=O)CN1CCCC1=O', 'Amnesia reversal', 20),
  ('COC(=O)[C@H]1[C@@H](OC(=O)c2ccccc2)C[C@@H]2CC[C@H]1N2C', 'Amnesia reversal', 10),
  ('[Cl-].[Li+]', 'Amnesia reversal', 10),
  ('CC1CCCCN1CCCNC(=O)CN1CCCC1=O (stereo unspecified)', 'Amnesia reversal', 0);

Next compound, Amnesia reversal to be filled in.
[ask] Amnesia reversal lookup needed for CCC1CCC(=O)N1CC(=O)NCCN(C(C)C)C(C)C (stereo unspecified) , thanks.
[reply] 20
